# system: GPR40 (Homo sapiens, UniProt O14842)
# Sequence (O14842 whole entry): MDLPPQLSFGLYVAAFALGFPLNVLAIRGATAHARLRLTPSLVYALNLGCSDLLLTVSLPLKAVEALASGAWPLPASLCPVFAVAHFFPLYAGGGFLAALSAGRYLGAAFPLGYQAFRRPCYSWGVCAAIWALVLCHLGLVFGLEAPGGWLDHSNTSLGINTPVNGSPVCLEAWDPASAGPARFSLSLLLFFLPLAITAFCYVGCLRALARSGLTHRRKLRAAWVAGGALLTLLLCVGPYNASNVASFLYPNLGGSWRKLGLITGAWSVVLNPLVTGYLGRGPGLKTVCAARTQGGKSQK
# assayComment: Inositol phosphate accumulation assay (A9_GPR40 cells)
# Format: cell-based
# Parameters: expressed in transfected cells; host or cells: CHO cells stably transfected with GPR40 and aequorin
# runConditions: inositol phosphate assay, A9_GPR40 cells, 1 hour; read-out: IP3 EC50
readoutName: EC50

Use these answered entries as a reference point.
# molecule, system, EC50
records = [
    ("COc1cccc(-c2ccc(COc3cccc(C(CC(=O)O)C4CCC4)c3)cc2C2CCCC2(C)C)c1 (single isomer, unassigned)", "GPR40 (Homo sapiens, UniProt O14842)", "10 to 100 nM"),
    ("COc1ccc(F)c(-c2ccc(COc3cccc(C(C)CC(=O)O)c3)c(F)c2C(C)(C)C)c1 (single isomer, unassigned)", "GPR40 (Homo sapiens, UniProt O14842)", "100 to 1000 nM"),
    ("CCC(CC(=O)O)c1cc(OCc2ccc(-c3cc(OC)ccc3F)c(C3=CCCC3(C)C)c2)cc(C(F)(F)F)c1 (single isomer, unassigned)", "GPR40 (Homo sapiens, UniProt O14842)", "10 to 100 nM"),
]

Prompt line: Give the value of EC50 reported for the following: COc1cc(-c2ccc(COc3cccc(C(CC(=O)O)C4CC4)c3)cc2C2=CCCCC2(C)C)c(F)cn1 (single isomer, unassigned)
Response line: 10 to 100 nM

Prompt line: Give the value of EC50 reported for the following: COc1cc(-c2ccc(COc3cccc(C(CC(=O)O)C4CC4)c3)cc2C2=CCCC2(C)C)ccn1 (single isomer, unassigned)
Response line: 10 to 100 nM

Prompt line: Give the value of EC50 reported for the following: COc1ccc(F)c(-c2ccc(COc3cccc([C@@H](CC(=O)O)CC4CC4)c3)cc2C(C)C(C)C)c1 (single isomer, unassigned)
Response line: < 10 nM

###

# system: GPR40 (Homo sapiens, UniProt O14842)
# assayComment: Cell-based aequorin assay (CHO cells stably expressing GPR40 and aequorin)
# Set-up: expressed in transfected cells; host or cells: CHO cells stably transfected with GPR40 and aequorin
# runConditions: activation of human GPR40, CHO cells, 0.01% HSA
pEC50: −log10 of the molar value.
readoutName: pEC50

Use these answered entries as a reference point.
# compound, val
records = [
    ("COc1ccc(F)c(-c2ccc(COc3cccc([C@@H](CC(=O)O)C4CC4)c3)cc2[C@H]2OCCCC2(C)C)c1 (single isomer, unassigned) [Example 66.55]", "5.00 to 6.00"),
    ("COc1ccc(F)c(-c2ccc(COc3cccc([C@@H](CC(=O)O)C4CCC4)c3)cc2[C@@H]2CCCC2(C)C)c1 (single isomer, unassigned) [Example 79.4]", "7.00 to 8.00"),
]

Prompt line: Name the recorded pEC50 of C=C[C@H](CC(=O)O)c1cccc(OCc2ccc(-c3cc(OC)ccc3F)c(C(C)(C)C)c2)c1 (single isomer, unassigned) [Example 15] , assay system GPR40 (Homo sapiens, UniProt O14842).
Response line: 5.00 to 6.00

###

# system: GPR40 (Homo sapiens)
# assayComment: Inositol phosphate accumulation assay (A9_GPR40 cells)
# Assay type: cell-based
# Design: expressed in transfected cells; host or cells: CHO cells stably transfected with GPR40 and aequorin
# runConditions: inositol phosphate assay, A9_GPR40 cells, 1 hour; read-out: IP3 EC50
# Experimental: Briefly, the Aequorin assays were performed on doubly stable CHO cells expressing GPR40 and Aequorin DNA. […] The luminescence was recorded over a period of 20 seconds with a Microlumat luminometer (Berthold). […] The inositol phosphate assay was performed on an A9 cell line stably transfected with GPR40 (A9_GPR40). The cells were incubated with different concentrations of compounds and [^3H] inositol accumulation was measured after 1 hour. […]
readoutName: EC50

Use these answered entries as a reference point.
# compound, EC50
measured = [
    ("COc1ccc(F)c(-c2cc(F)c(COc3cccc(C(CC(=O)O)CC4CC4)c3)cc2C2CCCC2(C)C)c1 (single isomer, unassigned)", "< 10 nM"),
    ("COc1ccc(F)c(-c2ccc(COc3cccc(CCC(=O)O)c3)cc2C(C)(C)C)c1", "100 to 1000 nM"),
    ("CCC(CC(=O)O)c1cccc(NCc2ccc(-c3cc(OC)ccc3F)c(C3=CCCC3(C)C)c2)c1 (single isomer, unassigned)", "> 10000 nM"),
    ("COc1ccc(F)c(-c2ccc(COc3cccc(C(CC(=O)O)CC4CC4)c3F)cc2C2CCCC2(C)C)c1 (single isomer, unassigned) [Example 84.3]", "< 10 nM"),
]

Prompt line: Give the value of EC50 reported for the following: COc1ccc(F)c(-c2ccc(COc3cccc(C(CC(=O)O)C4CC4)c3F)cc2C(C)C(C)(C)C)c1 (single isomer, unassigned)
Response line: < 10 nM

Prompt line: Give the value of EC50 reported for the following: CCC(CC(=O)O)c1cccc(OCc2ccc(-c3cc(OC)ccc3F)c(C3=CCCC3(C)C)c2)c1F (single isomer, unassigned)
Response line: 10 to 100 nM

Prompt line: Give the value of EC50 reported for the following: COc1ccc(F)c(-c2ccc(COc3cccc(C(CC(=O)O)C4CC4)c3F)cc2C(F)C(C)(C)C)c1 (single isomer, unassigned)
Response line: < 10 nM

Prompt line: Give the value of EC50 reported for the following: COc1cc(-c2ccc(COc3cccc([C@@H](CC(=O)O)C4CC4)c3)cc2[C@@H]2CCCC2(C)C)c(F)cn1 (single isomer, unassigned)
Response line: 10 to 100 nM

Prompt line: Give the value of EC50 reported for the following: COc1ccc(F)c(-c2cc(F)c(COc3cccc([C@@H](CC(=O)O)C4CC4)c3)cc2[C@H]2CCCC2(C)C)c1 (single isomer, unassigned)
Response line: < 10 nM

Prompt line: Give the value of EC50 reported for the following: COc1cccc(-c2ccc(COc3cccc(C(CC(=O)O)CC4CC4)c3)cc2C2CCCC2(C)C)c1 (single isomer, unassigned)
Response line: < 10 nM

Prompt line: Give the value of EC50 reported for the following: C=C(C)[C@H](CC(=O)O)c1cccc(OCc2ccc(-c3cc(OC)ccc3F)c(OCCCC)c2)c1 (single isomer, unassigned)
Response line: 1000 to 10000 nM

Prompt line: Give the value of EC50 reported for the following: CCC(CC(=O)O)c1cccc(OCc2ccc(-c3cc(OC)ccc3F)c(C3CCCC3(C)C)c2)c1F (single isomer, unassigned)
Response line: < 10 nM

###

# system: GPR40 (Homo sapiens)
# assayComment: Inositol phosphate accumulation assay (A9_GPR40 cells)
# Format: cell-based
# Parameters: expressed in transfected cells; host or cells: CHO cells stably transfected with GPR40 and aequorin
# runConditions: inositol phosphate assay, A9_GPR40 cells, 1 hour; read-out: IP3 EC50
pEC50: −log10 of the molar value.
readoutName: pEC50

Use these answered entries as a reference point.
# compound, readoutName, val
rows = [
    ("COc1ccc(F)c(-c2ccc(COc3cccc(C(CC(=O)O)CC4CC4)c3)cc2N2CCCCC2)c1 (single isomer, unassigned) [Example 69.28]", "pEC50", "7.00 to 8.00"),
    ("COc1ccc(F)c(-c2ccc(COc3cccc(C(C)CC(=O)O)c3)cc2C2CCCC2(C)C)c1 (single isomer, unassigned) [Example 64.22]", "pEC50", "7.00 to 8.00"),
]

Prompt line: Give the value of pEC50 reported for the following: COc1ccc(F)c(-c2ccc(COc3cccc([C@@H](CC(=O)O)C4CC4)c3)cc2C2CCCC2(C)C)c1 (single isomer, unassigned) [Example 66.4]
Response line: > 8.00

###

# system: GPR40 (Homo sapiens, UniProt O14842)
# assayComment: Cell-based aequorin assay (CHO cells stably expressing GPR40 and aequorin)
# Parameters: expressed in transfected cells; host or cells: CHO cells stably transfected with GPR40 and aequorin
# runConditions: activation of human GPR40, CHO cells, 0.01% HSA
Listed compounds paired with reported EC50

# compound, system, val
rows = [
    ("COc1ccc(F)c(-c2ccc(COc3cccc([C@H](C)CC(=O)O)c3)cc2C23CC4CC(CC(C4)C2)C3)c1 (single isomer, unassigned)", "GPR40 (Homo sapiens, UniProt O14842)", "100 to 1000 nM"),
    ("C=C(C)[C@H](CC(=O)O)c1cccc(OCc2ccc(-c3cccc(OC)c3)c(C(C)(C)C)c2)c1 (single isomer, unassigned)", "GPR40 (Homo sapiens, UniProt O14842)", "100 to 1000 nM"),
    ("COc1ccc(F)c(-c2ccc(COc3cccc(C[C@H](C)C(=O)O)c3)cc2C2=CCCC2(C)C)c1 (single isomer, unassigned)", "GPR40 (Homo sapiens, UniProt O14842)", "100 to 1000 nM"),
    ("COc1ccc(F)c(-c2ccc(COc3cccc([C@@H](CC(=O)O)C4CC4)c3)cc2[C@@H](OCc2ccccc2)C(C)(C)C)c1 (single isomer, unassigned)", "GPR40 (Homo sapiens, UniProt O14842)", "100 to 1000 nM"),
    ("COc1ccc(F)c(-c2ccc(COc3cccc([C@@H](CC(=O)O)c4ccon4)c3)cc2C(C)(C)C)c1", "GPR40 (Homo sapiens, UniProt O14842)", "1000 to 10000 nM"),
]

Prompt line: Give the value of EC50 reported for the following: COc1ccc(F)c(-c2ccc(COc3cccc(C(CC(=O)O)CC4CC4)c3)cc2C(C)C(C)(C)C)c1 (single isomer, unassigned)
Response line: 100 to 1000 nM

// provenance: patent US8030354B2
